molecular target: rat GHS-R (GHS receptor) expressed on CHO-GHSR62 cells (rat, UniProt O08725 1-364); test: cell-based or functional assay
Sequence (O08725 whole entry): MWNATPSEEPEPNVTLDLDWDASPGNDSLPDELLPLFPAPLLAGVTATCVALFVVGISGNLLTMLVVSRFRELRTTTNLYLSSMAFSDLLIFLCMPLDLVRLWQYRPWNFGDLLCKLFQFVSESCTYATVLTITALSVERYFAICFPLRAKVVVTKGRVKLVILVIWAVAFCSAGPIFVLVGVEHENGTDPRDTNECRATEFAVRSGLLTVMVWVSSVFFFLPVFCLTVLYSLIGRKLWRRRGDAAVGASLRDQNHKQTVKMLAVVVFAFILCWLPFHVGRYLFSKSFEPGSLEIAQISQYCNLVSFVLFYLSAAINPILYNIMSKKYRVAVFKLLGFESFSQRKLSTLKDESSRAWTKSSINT
Square brackets hold non-standard residues; d marks the D form. Ends that are not written are not given here. * marks the point of attachment. NMeF = CN[C@@H](Cc1ccccc1)C(=O)O; NMeL = CN[C@@H](CC(C)C)C(=O)O; Ava = NCCCCC(=O)O; Octyl = CCCCCCCC*

{"BINDER": "[Ava]S(Octyl)[NMeF][NMeL]-NH2 [[N-Aminopentanoyl,Ser^3(Octyl),MePhe^4,MeLeu^5]-Ghrelin (3-5)-amide]", "MEASURE UNIT": "nM", "EC50": 86}

Hello, the source for this data is patent US20090170763A1, in case you need it.
